These measurements were taken from patent US6737433B1.

Counter-ions that a name gives are not always drawn.
For each of the compounds below, state its melting point.
Report as: number unit

Task item: Item "Cc1ncn(N(Cc2ccc(Br)cc2)c2ccc(C#N)cc2)c1C" has what recorded melting point?
Reply: 150 °C

Task item: Give the measured melting point of COc1ccc(CN(c2ccc(C#N)cc2)n2ccnc2)cc1F (as salt: hydrochloride) .
Reply: 190 °C

Task item: Record request: melting point value, item "CSc1ccc(CN(c2ccc(C#N)cc2)n2ccnc2)cc1"
Reply: 128 °C

Task item: GET /values?readout=melting point&item= "N#Cc1ccc(N(c2ccc(F)cc2)n2ccnc2)cc1"
Reply: 113 °C

Task item: Quick one: melting point of N#Cc1ccc(N(c2ccc(C#N)cc2)n2ccnc2)cc1 (as salt: hydrochloride) ?
Reply: 199 °C

Task item: What melting point value was documented for this compound, "N#Cc1ccc(N(Cc2cccc(F)c2)n2ccnc2)cc1" ?
Reply: 112 °C

Task item: // query melting point value for entry COc1ccc(CN(c2ccc(C#N)cc2)n2ccnc2)cc1OC (as salt: hydrochloride)
Reply: 167 °C

* * *

Consider the following compounds; for each one, report its pIC50.
- EXPERIMENTAL TARGET: human aromatase (Homo sapiens)
- Construct: The JEG-3 cell line, derived from a human placental choriocarcinoma, is intrinsically very rich in human aromatase; endogenous in cells
- Sequence (P11511 1-503): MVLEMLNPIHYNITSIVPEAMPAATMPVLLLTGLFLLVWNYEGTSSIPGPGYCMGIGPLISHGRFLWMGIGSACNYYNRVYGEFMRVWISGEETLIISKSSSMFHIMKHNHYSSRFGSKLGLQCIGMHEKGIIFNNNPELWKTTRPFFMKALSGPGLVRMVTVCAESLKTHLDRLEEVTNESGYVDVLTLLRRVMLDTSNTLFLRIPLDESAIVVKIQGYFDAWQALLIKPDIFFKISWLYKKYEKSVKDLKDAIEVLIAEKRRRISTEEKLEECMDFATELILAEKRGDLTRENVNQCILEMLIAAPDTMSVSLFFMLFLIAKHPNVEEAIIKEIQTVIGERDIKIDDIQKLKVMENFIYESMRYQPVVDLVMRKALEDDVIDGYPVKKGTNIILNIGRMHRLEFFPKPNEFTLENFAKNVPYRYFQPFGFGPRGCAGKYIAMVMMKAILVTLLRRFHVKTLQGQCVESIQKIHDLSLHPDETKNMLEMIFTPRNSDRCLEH
- TEST DETAILS: Inhibition of human aromatase in vitro in JEG-3 cells (3H-water release from 1β-3H-androstenedione)
- SETUP CONDITIONS: 10 nM 1β-3H-androstenedione, 2 h incubation
pIC50 (log units): -log10 of the concentration in mol/L.

Task item: What is its pIC50 for human aromatase (Homo sapiens)? Entry: Cc1cn(N(Cc2ccc(Br)cc2)c2ccc(C#N)cc2)cn1 [Example 30]
Reply: 8.94

Task item: human aromatase (Homo sapiens) / pIC50 / N#Cc1ccc(CN(c2ccc(C#N)cc2)n2ccnc2)cc1 [Example 11] : value?
Reply: 9.74

Task item: # query: pIC50 | item CS(=O)(=O)c1ccc(CN(c2ccc(C#N)cc2)n2ccnc2)cc1 [Example 16] | system: human aromatase (Homo sapiens)
Reply: 9.46

Task item: Query the reported pIC50 for human aromatase (Homo sapiens); item: N#Cc1ccc(N(c2ccc(C#N)cc2C(F)(F)F)n2ccnc2)cc1 [Example 25]
Reply: 9.18

Task item: What pIC50 appears in the records for this compound with human aromatase (Homo sapiens)? N#Cc1ccc(N(Cc2cc(F)cc(F)c2)n2ccnc2)cc1 [Example 19]
Reply: 9.40

Task item: pIC50 of N#Cc1ccc(N(Cc2ccc(F)c(F)c2)n2ccnc2)cc1 [Example 17] on human aromatase (Homo sapiens)?
Reply: 9.62

Task item: Given the entry N#Cc1ccc(N(Cc2ccc(F)cc2)n2ccnc2)cc1 [Example 14] , what pIC50 was observed with human aromatase (Homo sapiens)?
Reply: 9.80

Task item: Recorded pIC50 for N#Cc1ccc(CN(c2ccc(C#N)cc2C(F)(F)F)n2ccnc2)cc1 [Example 23] with human aromatase (Homo sapiens), please?
Reply: 9.32

Task item: Short answer please: pIC50, human aromatase (Homo sapiens), entry Cc1cncn1N(Cc1ccc(Br)cc1)c1ccc(C#N)cc1 [Example 31]
Reply: 9.24

Task item: For the record N#Cc1ccc(N(c2ccc(C(F)(F)F)cc2)n2ccnc2)cc1 [Example 5] , what value of pIC50 is listed for human aromatase (Homo sapiens)?
Reply: 9.27

Task item: Param readout= pIC50; system= human aromatase (Homo sapiens); entry= N#Cc1ccc(N(Cc2ccc(Cl)cc2)n2ccnc2)cc1 [Example 7] ; returns value.
Reply: 9.85

Task item: Request - read-out pIC50 | tested on human aromatase (Homo sapiens) | compound N#Cc1ccc(N(Cc2ccc(Br)cc2)n2ccnc2)cc1 [Example 20]
Reply: 9.66

Task item: // lookup pIC50 | system=human aromatase (Homo sapiens) | key= N#Cc1ccc(N(c2ccc(F)cc2)n2ccnc2)cc1 [Example 28]
Reply: 8.80

Task item: Request - read-out pIC50 | tested on human aromatase (Homo sapiens) | compound Cn1nnc2ccc(N(Cc3ccc(C#N)cc3)n3ccnc3)cc21 [Example 22]
Reply: 9.70

Task item: Reported pIC50 for human aromatase (Homo sapiens), given N#Cc1ccc(N(Cc2ccc(C(F)(F)F)cc2)n2ccnc2)cc1 [Example 6] ?
Reply: 9.51

Task item: Write down the reported pIC50 of COc1ccc(CN(c2ccc(C#N)cc2)n2ccnc2)cc1 [Example 8] , test system: human aromatase (Homo sapiens).
Reply: 9.85

Task item: Lab request: please report pIC50 under test system human aromatase (Homo sapiens) for N#Cc1ccc(N(Cc2cccc(F)c2)n2ccnc2)cc1 [Example 26]
Reply: 9.89

Task item: For human aromatase (Homo sapiens), provide pIC50 of N#Cc1ccc(N(Cc2ccc(F)cc2F)n2ccnc2)cc1 [Example 18] please.
Reply: 9.85

Task item: # returns recorded pIC50 (system: human aromatase (Homo sapiens)) for N#Cc1ccc(N(Cc2ccc(Br)cc2)n2cncn2)cc1 [YM 511, reference compound]
Reply: 9.52

Task item: Lab note: need pIC50 with human aromatase (Homo sapiens) for entry COc1ccc(CN(c2ccc(C#N)cc2)n2ccnc2)cc1F [Example 9] , please look it up.
Reply: 9.80

Task item: Hello, I am looking for reported pIC50 with human aromatase (Homo sapiens) for N#Cc1ccc(N(Cc2cccc(C(F)(F)F)c2)n2ccnc2)cc1 [Example 29] . Could you help?
Reply: 9.72
